Measured values drawn from patent EP0755932A1 for this set.

IC50 reference
biological target: 5-HT1A serotonin receptor (Rattus norvegicus); construct: from tissue; host or cells: rat brain membranes (inferred from the cited Hall et al. procedure); assay: Displacement of [3H] 8-OHDPAT from the 5-HT1A serotonin receptor (procedure of Hall et al.); assay type: binding
Sequence (P19327 whole entry): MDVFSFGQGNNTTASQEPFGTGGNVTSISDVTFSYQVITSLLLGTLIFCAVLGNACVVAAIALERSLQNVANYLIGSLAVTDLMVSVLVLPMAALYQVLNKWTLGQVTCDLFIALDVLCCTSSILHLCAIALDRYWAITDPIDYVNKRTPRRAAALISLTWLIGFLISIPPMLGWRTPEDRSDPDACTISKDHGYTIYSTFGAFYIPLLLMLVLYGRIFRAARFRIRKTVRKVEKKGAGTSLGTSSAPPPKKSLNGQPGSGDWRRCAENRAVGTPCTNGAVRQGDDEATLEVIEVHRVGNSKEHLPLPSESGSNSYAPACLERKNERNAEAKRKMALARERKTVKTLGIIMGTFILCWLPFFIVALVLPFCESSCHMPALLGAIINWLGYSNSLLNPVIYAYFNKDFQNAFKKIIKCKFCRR
Number only, in nM; omit the unit.

Briefly, IC50 measured for COc1ccsc1C1(O)CCN(CC[C@@H](C(=O)N2C3CCCC2CC3)c2ccccc2)CC1 : 942

---
Briefly, IC50 measured for COc1ccsc1C1=CCN(CC[C@@H](C(=O)N2C3CCCC2CC3)c2ccccc2)CC1 : 0.9
